target: full-length beta-Catenin (Uniprot ID P35222) (Homo sapiens (Human)) (UniProt P35222); assay: fluorescence polarization competition; full-length beta-catenin, competitor 5FAM-TCF4(10-53) probe
Starred links: 1 amine or outer side, 2 acyl side, 3 side chain; linkers in the order of their positions; H or OH if unused. Positions of bridges follow the written chain, without caps; N, C: chain ends. Non-standard residues stand in square brackets, D forms with d. Primed or numbered codes have the meaning given here. PyrS2″ = (S)-3-amino-1-((pent-4-en-1-yloxy)carbonyl)pyrrolidine-3-carboxylic acid (stapling residue), C=CCCCOC(=O)N1CC[C@@](N[*:1])(C(=O)[*:2])C1; B5(4) = 2,2-bis(4-pentenyl)glycine = 2-amino-2-(pent-4-en-1-yl)hept-6-enoic acid (stitching residue), C=CCCCC(CCCC=C)(N[*:1])C(=O)[*:2]; B5(5) = 2,2-bis(4-pentenyl)glycine, 2-amino-2-(pent-4-en-1-yl)hept-6-enoic acid (stitching residue), C=CCCCC(CCCC=C)(N[*:1])C(=O)[*:2]; B5(21) = 2-amino-2-(pent-4-en-1-yl)hept-6-enoic acid, bis(4-pentenyl)glycine (stitching residue), C=CCCCC(CCCC=C)(N[*:1])C(=O)[*:2]; B5(19) = 2-amino-2-(pent-4-en-1-yl)hept-6-enoic acid (bis(4-pentenyl)glycine), C=CCCCC(CCCC=C)(N[*:1])C(=O)[*:2]; Ala(2-furyl) = N[C@@H](Cc1ccco1)C(=O)O; Phe(2-Cl) = N[C@@H](Cc1ccccc1Cl)C(=O)O; Bta = N[C@@H](Cc1csc2ccccc12)C(=O)O; αAllylPro = C=CC[C@@]1(C(=O)O)CCCN1; tBuAla = CC(C)(C)C[C@H](N)C(=O)O; 3Thi = N[C@@H](Cc1ccsc1)C(=O)O; Cha = N[C@@H](CC1CCCCC1)C(=O)O; S8 = C=CCCCCCC[C@](C)(N)C(=O)O; 34ClF = not defined here; Nle = CCCC[C@H](N)C(=O)O; Aib = CC(C)(N)C(=O)O
measurement name: pIC50
Formally, pIC50 is defined as -log10 of the concentration c, with c in mol/L.

Example entries and their recorded answers appear below.
Ac-[αAllylPro]DI[B5(19)]DEA[Nle]FQ[S8]F[Bta]Q-NH2 (staple 1-4, 4-11) [I-666] | 6.20
Ac-[αAllylPro]DA[B5(4)]DEAA[Ala(2-furyl)]N[S8]F[Bta]Q-NH2 (staple 1-4, 4-11) [I-460] | 6.71
Ac-[αAllylPro]D[tBuAla][B5(5)]NT[Aib]AFN[PyrS2″][3Thi][34ClF]Q-NH2 (staple 1-4, 4-11; reading uncertain; also: printed as Ac-PL3-Asp-Npg-B5-Asn-Thr-Aib-Ala-Phe-Asn-PyrS2-3Thi-34C1F-Gln-NH2) [I-2417] | 6.80

Let's switch to this binder now.
The binder listed as Ac-[αAllylPro]D[Cha][B5(21)]DTAAFL[PyrS2″][Phe(2-Cl)][Bta]Q-NH2 (staple 1-4, 4-11) [I-1176] shows pIC50 equal to 6.77
